Test system: KB-3-1 cells
Measurement Notes: MTT cytotoxicity assay, parental KB-3-1 cell line
Format: cell-based
Test Conditions: Homo sapiens, parental KB-3-1 cells (HeLa derivative), 72 h incubation, at least three experiments, read-out: IC50 KB3-1
pIC50: −log10 of the molar value.
Measure Name: pIC50

{"Compound": "O=C1Nc2ccccc2/C1=N/N=C1\\C(=O)Nc2ccc(OC(F)(F)F)cc21 [Compound 10]", "Measure Name": "pIC50", "Value Qualifier": "=", "Recorded Result": 5.01}
{"Compound": "Cc1ccc2c(c1)/C(=N/N=C1\\C(=O)Nc3ccc(F)cc31)C(=O)N2 [Compound 21]", "Measure Name": "pIC50", "Value Qualifier": "=", "Recorded Result": 4.72}
{"Compound": "O=C1Nc2ccc(F)cc2/C1=N/N=C1\\C(=O)Nc2ccc([N+](=O)[O-])cc21 [Compound 22]", "Measure Name": "pIC50", "Value Qualifier": "=", "Recorded Result": 4.25}
{"Compound": "O=C1Nc2ccccc2/C1=N/N=C1\\C(=O)Nc2ccccc21 [Compound 3]", "Measure Name": "pIC50", "Value Qualifier": "=", "Recorded Result": 4.77}
{"Compound": "O=C1Nc2ccccc2/C1=N/N=C1\\C(=O)Nc2ccc([N+](=O)[O-])cc21 [Compound 9]", "Measure Name": "pIC50", "Value Qualifier": "=", "Recorded Result": 4.53}
{"Compound": "O=C1Nc2ccc(F)cc2/C1=N/N=C1\\C(=O)Nc2ccc(Cl)cc21 [Compound 19]", "Measure Name": "pIC50", "Value Qualifier": "=", "Recorded Result": 4.76}
{"Compound": "O=C1Nc2ccccc2/C1=N/N=C1\\C(=O)N(c2ccccc2)c2ccccc21 [Compound 4]", "Measure Name": "pIC50", "Value Qualifier": "=", "Recorded Result": 5.06}
{"Compound": "N/N=C1\\C(=O)Nc2ccccc21 [Compound 2a, (Z)-3-Hydrazonoindolin-2-one]", "Measure Name": "pIC50", "Value Qualifier": "<", "Recorded Result": 3.30}
{"Compound": "Cc1ccc2c(c1)/C(=N/N=C1\\C(=O)N(c3ccccc3)c3ccccc31)C(=O)N2 [Compound 15]", "Measure Name": "pIC50", "Value Qualifier": "=", "Recorded Result": 5.08}
{"Compound": "O=C1Nc2ccc(OC(F)(F)F)cc2/C1=N/N=C1\\C(=O)N(c2ccccc2)c2ccccc21 [Compound 17]", "Measure Name": "pIC50", "Value Qualifier": "=", "Recorded Result": 5.12}
{"Compound": "O=C1Nc2ccccc2/C1=N/N=C1\\C(=O)Nc2ccc(F)cc21 [Compound 5]", "Measure Name": "pIC50", "Value Qualifier": "=", "Recorded Result": 4.55}
{"Compound": "O=C1Nc2ccc(F)cc2/C1=N/N=C1\\C(=O)N(c2ccccc2)c2ccccc21 [Compound 12]", "Measure Name": "pIC50", "Value Qualifier": "=", "Recorded Result": 4.99}
{"Compound": "O=C1Nc2ccc([N+](=O)[O-])cc2/C1=N/N=C1\\C(=O)N(c2ccccc2)c2ccccc21 [Compound 16]", "Measure Name": "pIC50", "Value Qualifier": "=", "Recorded Result": 4.43}
{"Compound": "O=C1Nc2ccccc2/C1=N/N=C1\\C(=O)Nc2ccc(Cl)cc21 [Compound 6]", "Measure Name": "pIC50", "Value Qualifier": "=", "Recorded Result": 5.01}
{"Compound": "O=C1/C(=N\\N=C2/C(=O)N(c3ccccc3)c3ccccc32)c2ccccc2N1c1ccccc1 [Compound 11]", "Measure Name": "pIC50", "Value Qualifier": "=", "Recorded Result": 4.59}
{"Compound": "O=C1Nc2ccc(Cl)cc2/C1=N/N=C1\\C(=O)N(c2ccccc2)c2ccccc21 [Compound 13]", "Measure Name": "pIC50", "Value Qualifier": "=", "Recorded Result": 5.17}
{"Compound": "O=C1Nc2ccc(F)cc2/C1=N/N=C1\\C(=O)Nc2ccc(OC(F)(F)F)cc21 [Compound 23]", "Measure Name": "pIC50", "Value Qualifier": "=", "Recorded Result": 4.82}
{"Compound": "O=C1Nc2ccc(Br)cc2/C1=N/N=C1\\C(=O)N(c2ccccc2)c2ccccc21 [Compound 14]", "Measure Name": "pIC50", "Value Qualifier": "=", "Recorded Result": 5.10}
{"Compound": "O=C1Nc2ccc(F)cc2/C1=N/N=C1\\C(=O)Nc2ccc(Br)cc21 [Compound 20]", "Measure Name": "pIC50", "Value Qualifier": "=", "Recorded Result": 4.81}
{"Compound": "O=C1Nc2ccc(F)cc2/C1=N/N=C1\\C(=O)Nc2ccc(F)cc21 [Compound 18]", "Measure Name": "pIC50", "Value Qualifier": "=", "Recorded Result": 4.69}
{"Compound": "Cc1ccc2c(c1)/C(=N/N=C1\\C(=O)Nc3ccccc31)C(=O)N2 [Compound 8]", "Measure Name": "pIC50", "Value Qualifier": "=", "Recorded Result": 4.92}
{"Compound": "O=C1Nc2ccccc2/C1=N/N=C1\\C(=O)Nc2ccc(Br)cc21 [Compound 7]", "Measure Name": "pIC50", "Value Qualifier": "=", "Recorded Result": 5.01}

Numbers sourced from patent US8497296B2.
